assay: Solubility of the compound in phosphate buffer saline at pH 9.0 after 20 mins by HPLC analysis; assay type: physicochemical

| COMPOUND_SMILES | solubility at 20 min |
| --- | --- |
| CCC(CC)O[C@@H]1C=C(C(=O)O)C[C@H](NC(C)=N)[C@H]1NC(C)=O | > 50 mM |
| CCOC(=O)C1=C[C@@H](OC(CC)CC)[C@H](NC(C)=O)[C@@H](NC(N)=NO)C1 | > 50 mM |
| Br.CCOC(=O)C1=C[C@@H](OC(CC)CC)[C@H](NC(C)=O)[C@@H](NC(C)=N)C1 | > 50 mM |
| CCOC(=O)C1=C[C@@H](OC(CC)CC)[C@H](NC(C)=O)[C@@H](NC(=N)N)C1 | > 50 mM |
| CCOC(=O)C1=C[C@@H](OC(CC)CC)[C@H](NC(C)=O)[C@@H](N/C(C)=N/O)C1 | 23 mM |
